test: Cytotoxicity against MDCK cells assessed as cell viability at 10 uM after 40 hrs by CellTiter-Glo assay; assay type: cell-based, Canis lupus familiaris; conditions: dog, read-out: Activity
Property: viability at 40 h, 10 µM
Include the unit right after the number.

Challenge: Consider the compound shown here: "COc1cc(/C=C/C(=O)CC(=O)/C=C/c2ccc(O)c(OC)c2)ccc1O" What is its recorded viability at 40 h, 10 µM?
Response given: 98.7%

====

assay: Cytotoxicity against MDCK cells assessed as decrease in cell viability after 40 hrs by CellTiter-Glo assay; assay type: cell-based, Canis lupus familiaris; settings: dog
Property: CC50 at 40 h

Challenge: Could you share which CC50 at 40 h value was measured for "C=C(C)[C@@H]1CC[C@]2(C(=O)OCCO[C@]3(C(=O)OC)C[C@H](O)[C@@H](NC(C)=O)[C@H]([C@H](O)[C@H](O)CO)O3)CC[C@]3(C)[C@H](CC[C@@H]4[C@@]5(C)CC[C@H](O)C(C)(C)[C@@H]5CC[C@]43C)[C@@H]12" ?
Response given: > 500 µM

Challenge: Request the reported CC50 at 40 h associated with "COC(=O)[C@@]1(OCCn2cc(CNC(=O)[C@]34CCC(C)(C)C[C@@H]3C3=CC[C@@H]5[C@@]6(C)CC[C@H](O)C(C)(C)[C@@H]6CC[C@@]5(C)[C@]3(C)CC4)nn2)C[C@H](OC(C)=O)[C@@H](NC(C)=O)[C@H]([C@H](OC(C)=O)[C@@H](COC(C)=O)OC(C)=O)O1"
Response given: > 500 µM

Challenge: Look up CC50 at 40 h for this compound: "CCOC(=O)C1=C[C@@H](OC(CC)CC)[C@H](NC(C)=O)[C@@H](N)C1"
Response given: > 500 µM

Challenge: // CC50 at 40 h lookup, key: "COc1cc(/C=C/C(=O)CC(=O)/C=C/c2ccc(O)c(OC)c2)ccc1O"
Response given: 48.3 µM

Challenge: # CC50 at 40 h lookup, item "C=C(C)[C@@H]1CC[C@]2(C(=O)OCCO[C@]3(C(=O)OC)C[C@H](OC(C)=O)[C@@H](NC(C)=O)[C@H]([C@H](OC(C)=O)[C@@H](COC(C)=O)OC(C)=O)O3)CC[C@]3(C)[C@H](CC[C@@H]4[C@@]5(C)CC[C@H](O)C(C)(C)[C@@H]5CC[C@]43C)[C@@H]12"
Response given: 178 µM

Challenge: Form field: reported CC50 at 40 h of "C=C(C)[C@@H]1CC[C@]2(C(=O)NCc3cn(CCO[C@]4(C(=O)OC)C[C@H](OC(C)=O)[C@@H](NC(C)=O)[C@H]([C@H](OC(C)=O)[C@@H](COC(C)=O)OC(C)=O)O4)nn3)CC[C@]3(C)[C@H](CC[C@@H]4[C@@]5(C)CC[C@H](O)C(C)(C)[C@@H]5CC[C@]43C)[C@@H]12"
Response given: > 500 µM

====

assay: Cytotoxicity against MDCK cells assessed as cell viability at 100 uM after 40 hrs by CellTiter-Glo assay relative to control; type: cell-based, Canis lupus familiaris; details: dog, read-out: Activity
Property: viability at 40 h, 100 µM (%)
Give a bare numeral; the unit % is implied.

Challenge: Given "COC(=O)[C@@]1(n2cc(CNC(=O)[C@]34CCC(C)(C)C[C@@H]3C3=CC[C@@H]5[C@@]6(C)CC[C@H](O)C(C)(C)[C@@H]6CC[C@@]5(C)[C@]3(C)CC4)nn2)C[C@H](O)[C@@H](NC(C)=O)[C@H]([C@H](O)[C@H](O)CO)O1" , state its recorded viability at 40 h, 100 µM.
Response given: 106

Challenge: # get_value(readout='viability at 40 h, 100 µM', item= "COC(=O)[C@@]1(OCCOC(=O)[C@]23CCC(C)(C)C[C@@H]2C2=CC[C@@H]4[C@@]5(C)CC[C@H](O)C(C)(C)[C@@H]5CC[C@@]4(C)[C@]2(C)CC3)C[C@H](O)[C@@H](NC(C)=O)[C@H]([C@H](O)[C@H](O)CO)O1" )
Response given: 82.4

Challenge: Consider the compound shown here: "COC(=O)[C@@]1(n2cc(CNC(=O)[C@]34CCC(C)(C)C[C@@H]3C3=CC[C@@H]5[C@@]6(C)CC[C@H](O)C(C)(C)[C@@H]6CC[C@@]5(C)[C@]3(C)CC4)nn2)C[C@H](OC(C)=O)[C@@H](NC(C)=O)[C@H]([C@H](OC(C)=O)[C@@H](COC(C)=O)OC(C)=O)O1" What is its recorded viability at 40 h, 100 µM?
Response given: 104

Challenge: Suppose we examine the compound "COC(=O)[C@@]1(OCCOC(=O)[C@]23CCC(C)(C)C[C@@H]2C2=CC[C@@H]4[C@@]5(C)CC[C@H](O)C(C)(C)[C@@H]5CC[C@@]4(C)[C@]2(C)C[C@H]3O)C[C@H](OC(C)=O)[C@@H](NC(C)=O)[C@H]([C@H](OC(C)=O)[C@@H](COC(C)=O)OC(C)=O)O1" ; what viability at 40 h, 100 µM value has been reported?
Response given: 84.5

Challenge: I'd like to know its viability at 40 h, 100 µM. The compound in question is "COC(=O)[C@@]1(OCCn2cc(CNC(=O)[C@]34CCC(C)(C)C[C@@H]3C3=CC[C@@H]5[C@@]6(C)CC[C@H](O)C(C)(C)[C@@H]6CC[C@@]5(C)[C@]3(C)CC4)nn2)C[C@H](OC(C)=O)[C@@H](NC(C)=O)[C@H]([C@H](OC(C)=O)[C@@H](COC(C)=O)OC(C)=O)O1"
Response given: 97.1

Challenge: Would you kindly share the measured viability at 40 h, 100 µM for "COC(=O)[C@@]1(n2cc(CNC(=O)[C@]34CC[C@@H](C)[C@H](C)[C@@H]3C3=CC[C@@H]5[C@@]6(C)CC[C@H](O)C(C)(C)[C@@H]6CC[C@@]5(C)[C@]3(C)CC4)nn2)C[C@H](OC(C)=O)[C@@H](NC(C)=O)[C@H]([C@H](OC(C)=O)[C@@H](COC(C)=O)OC(C)=O)O1" ?
Response given: 2.5

Challenge: Dear colleague, I am looking for the recorded viability at 40 h, 100 µM of the following compound: "COC(=O)[C@@]1(OCCN=[N+]=[N-])C[C@H](OC(C)=O)[C@@H](NC(C)=O)[C@H]([C@H](OC(C)=O)[C@@H](COC(C)=O)OC(C)=O)O1"
Response given: 100

Challenge: Tell me the measured viability at 40 h, 100 µM of "COC(=O)[C@@]1(OCCn2cc(CNC(=O)[C@]34CCC(C)(C)C[C@@H]3C3=CC[C@@H]5[C@@]6(C)CC[C@H](O)C(C)(C)[C@@H]6CC[C@@]5(C)[C@]3(C)CC4)nn2)C[C@H](O)[C@@H](NC(C)=O)[C@H]([C@H](O)[C@H](O)CO)O1" , please.
Response given: 107

====

experiment: Cytotoxicity against MDCK cells assessed as cell viability at 100 uM after 40 hrs by CellTiter-Glo assay relative to control; type: cell-based, Canis lupus familiaris; conditions: dog, read-out: Activity
Property: viability at 40 h, 100 µM (%)
Give the number; % is assumed, so skip it.

Challenge: Quick one: viability at 40 h, 100 µM of "COC(=O)[C@@]1(OCCn2cc(CNC(=O)[C@]34CC[C@@H](C)[C@H](C)[C@@H]3C3=CC[C@@H]5[C@@]6(C)CC[C@H](O)C(C)(C)[C@@H]6CC[C@@]5(C)[C@]3(C)CC4)nn2)C[C@H](OC(C)=O)[C@@H](NC(C)=O)[C@H]([C@H](OC(C)=O)[C@@H](COC(C)=O)OC(C)=O)O1" ?
Response given: 3.3

Challenge: Which viability at 40 h, 100 µM is reported for this compound? "C=C(C)[C@@H]1CC[C@]2(C(=O)NCc3cn([C@]4(C(=O)OC)C[C@H](OC(C)=O)[C@@H](NC(C)=O)[C@H]([C@H](OC(C)=O)[C@@H](COC(C)=O)OC(C)=O)O4)nn3)CC[C@]3(C)[C@H](CC[C@@H]4[C@@]5(C)CC[C@H](O)C(C)(C)[C@@H]5CC[C@]43C)[C@@H]12"
Response given: 100

Challenge: What measured viability at 40 h, 100 µM goes with "COC(=O)[C@@]1(OCCI)C[C@H](OC(C)=O)[C@@H](NC(C)=O)[C@H]([C@H](OC(C)=O)[C@@H](COC(C)=O)OC(C)=O)O1" ?
Response given: 103

Challenge: Quick check: viability at 40 h, 100 µM of C[C@H]1[C@H](C)CC[C@]2(C(=O)O)CC[C@]3(C)C(=CC[C@@H]4[C@@]5(C)CC[C@H](O)C(C)(C)[C@@H]5CC[C@]43C)[C@H]12 [URSOLIC ACID] ?
Response given: 0.4

Challenge: Any idea what viability at 40 h, 100 µM was measured for "COC(=O)[C@@]1(OCCn2cc(CNC(=O)[C@]34CCC(C)(C)C[C@@H]3C3=CC[C@@H]5[C@@]6(C)CC[C@H](O)C(C)(C)[C@@H]6CC[C@@]5(C)[C@]3(C)C[C@H]4O)nn2)C[C@H](O)[C@@H](NC(C)=O)[C@H]([C@H](O)[C@H](O)CO)O1" ?
Response given: 107

Challenge: What viability at 40 h, 100 µM value was documented for this compound, "C=C(C)[C@@H]1CC[C@]2(C(=O)OCCO[C@]3(C(=O)OC)C[C@H](O)[C@@H](NC(C)=O)[C@H]([C@H](O)[C@H](O)CO)O3)CC[C@]3(C)[C@H](CC[C@@H]4[C@@]5(C)CC[C@H](O)C(C)(C)[C@@H]5CC[C@]43C)[C@@H]12" ?
Response given: 98.3

Challenge: Any idea what its viability at 40 h, 100 µM is? The compound is "CC(=O)N[C@H]1[C@H]([C@H](O)[C@H](O)CO)O[C@@](O)(C(=O)O)C[C@@H]1O"
Response given: 96.4

Challenge: viability at 40 h, 100 µM for "C=C(C)[C@@H]1CC[C@]2(C(=O)NCc3cn([C@]4(C(=O)OC)C[C@H](O)[C@@H](NC(C)=O)[C@H]([C@H](O)[C@H](O)CO)O4)nn3)CC[C@]3(C)[C@H](CC[C@@H]4[C@@]5(C)CC[C@H](O)C(C)(C)[C@@H]5CC[C@]43C)[C@@H]12" ?
Response given: 104
